Consider the following compounds; for each one, report its Plant response rating, Barnyardgrass.
- Tested on: barnyardgrass (Echinochloa crus-galli)
- assay-info: Test A postemergence, barnyardgrass
- Format: in vivo
- condition-description: 125 g ai/ha, 0 to 100 scale
Give bare numbers.

Look over these answered cases.
{"columns": ["compound", "tgt", "Plant response rating, Barnyardgrass"],
 "data": [
  ["C[C@@H](Nc1ncc(C(F)(F)F)c(N)n1)c1cc2cc(Cl)ccc2o1 [Compound 2]", "barnyardgrass (Echinochloa crus-galli)", 0],
  ["Nc1nc(NC(c2cc3ccccc3o2)C2CC2)ncc1C(F)(F)F (racemic) [Compound 18]", "barnyardgrass (Echinochloa crus-galli)", 10],
  ["Cc1cc(F)cc(OCC(C)Nc2ncc(C(F)(F)F)c(N)n2)c1 (stereo not drawn) [Compound 39]", "barnyardgrass (Echinochloa crus-galli)", 0]
]}

I'm hoping you can list Plant response rating, Barnyardgrass for every compound here, please.
1. C[C@@H](Nc1ncc(C(F)(F)F)c(N)n1)c1cc2cc(C(F)(F)F)ccc2o1 [Compound 7]
2. C[C@@H](Nc1ncc(C(F)(F)F)c(N)n1)c1cccc2ccccc12 [Compound 3]
3. Cc1cc2oc([C@@H](C)Nc3ncc(C(F)(F)F)c(N)n3)cc2cc1F [Compound 31]
4. Cc1cc(OCC(C)Nc2ncc(C(F)(F)F)c(N)n2)ccc1F (stereo not drawn) [Compound 38]
5. C[C@@H](Nc1ncc(C(F)(F)F)c(N)n1)c1cc2ccc(C(F)(F)F)cc2o1 [Compound 15]
6. Cc1ccc2oc([C@@H](C)Nc3ncc(C(F)(F)F)c(N)n3)cc2c1 [Compound 10]
7. CC(COc1cc(F)cc(F)c1)Nc1ncc(C(F)(F)F)c(N)n1 (stereo not drawn) [Compound 33]
8. CC(COc1cc(Cl)cc(Cl)c1)Nc1ncc(C(F)(F)F)c(N)n1 (stereo not drawn) [Compound 35]

**A:**
[0, 20, 20, 0, 30, 0, 0, 20]

* * *

- System: ragweed (common ragweed, Ambrosia elatior)
- assay-info: Test A postemergence, ragweed
- Assay type: in vivo
- condition-description: 500 g ai/ha, 0 to 100 scale, 0 is no effect, 100 is complete control
With a cut-off of 70, any Ragweed plant response rating strictly below it is called Fulfilled; any Ragweed plant response rating meeting it or above is called Not fulfilled.

The following compounds have reported results that may help.
{"columns": ["compound", "tgt", "assigned-label"],
 "data": [
  ["CC[C@H](Nc1ncc(C(F)(F)F)c(N)n1)c1cc2ccc(F)cc2s1 [Compound 49]", "ragweed (common ragweed, Ambrosia elatior)", "Fulfilled"],
  ["C[C@@H](Nc1ncc(C(F)(F)F)c(N)n1)c1coc2ccccc12 [Compound 52]", "ragweed (common ragweed, Ambrosia elatior)", "Not fulfilled"],
  ["C[C@H](Nc1ncc(C(F)(F)F)c(N)n1)c1csc2ccccc12 [Compound 42]", "ragweed (common ragweed, Ambrosia elatior)", "Fulfilled"],
  ["C[C@@H](Nc1ncc(C(F)(F)F)c(N)n1)c1cc2ccc(F)cc2s1 [Compound 46]", "ragweed (common ragweed, Ambrosia elatior)", "Not fulfilled"],
  ["CC[C@@H](Nc1ncc(C(F)(F)F)c(N)n1)c1cc2ccccc2s1 [Compound 43]", "ragweed (common ragweed, Ambrosia elatior)", "Not fulfilled"]
]}

**Q:** I wonder whether CCC(Nc1ncc(C(F)(F)F)c(N)n1)c1coc2ccccc12 (racemic) [Compound 53] has Ragweed plant response rating below 70. Can you tell?
**A:** Not fulfilled

**Q:** I wonder whether C[C@@H](Nc1ncc(C(F)(F)F)c(N)n1)c1csc2ccccc12 [Compound 41] has Ragweed plant response rating below 70. Can you tell?
**A:** Not fulfilled

**Q:** I wonder whether CC(Nc1ncc(C(F)(F)F)c(N)n1)c1coc2cc(F)ccc12 (racemic) [Compound 51] has Ragweed plant response rating below 70. Can you tell?
**A:** Not fulfilled
